Listing of recorded IC50 by entry.
# TARGET_UNDER_TEST: PIP4K 2A (Homo sapiens, UniProt P48426)
# Sequence (P48426 whole entry): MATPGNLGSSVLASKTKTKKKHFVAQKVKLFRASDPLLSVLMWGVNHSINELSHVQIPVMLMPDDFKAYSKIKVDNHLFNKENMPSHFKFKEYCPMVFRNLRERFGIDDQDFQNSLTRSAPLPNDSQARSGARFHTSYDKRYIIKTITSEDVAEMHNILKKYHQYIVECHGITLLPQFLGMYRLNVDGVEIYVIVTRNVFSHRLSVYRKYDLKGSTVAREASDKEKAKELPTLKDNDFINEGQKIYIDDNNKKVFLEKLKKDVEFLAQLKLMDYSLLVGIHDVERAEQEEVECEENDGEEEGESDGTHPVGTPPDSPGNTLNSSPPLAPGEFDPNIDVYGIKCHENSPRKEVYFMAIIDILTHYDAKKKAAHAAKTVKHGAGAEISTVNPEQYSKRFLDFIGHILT
# ASSAY_OVERVIEW: ADP-glo kinase assay PIP4K 2A
# Type: biochemical
# Set-up: 4 nM PIP4K2A (full length protein, SignalChem); purchased SignalChem
# PARTICULARS: compounds listed under IC50 bin headings

Recorded results for 5 compounds are shown here.
CC1Oc2cc(N3CCCC3=O)ccc2-c2cnc(Nc3cncc(NC(=O)c4cccc5c4OCO5)c3)cc21 (centres unmarked)	1 to 10 nM
CC1Oc2cc(N3CCCC3=O)ccc2-c2cnc(Nc3cncc(NC(=O)Cc4cnc5ccccn45)c3)cc21 (centres unmarked)	1 to 10 nM
CC1Oc2cc(N3CCCC3=O)ccc2-c2cnc(Nc3cncc(N4CCN(Cc5cscn5)C4=O)c3)cc21 (centres unmarked)	≤ 1 nM
CC1Oc2cc(N3CCCC3=O)ccc2-c2cnc(Nc3cncc(NC(=O)c4ccnc(N)c4)c3)cc21 (centres unmarked)	≤ 1 nM
CC1Oc2cc(N3CCCC3=O)ccc2-c2cnc(Nc3cnc4c(c3)NC(=O)CO4)cc21 (centres unmarked)	10 to 100 nM

Req: Form field - read-out: IC50; system: PIP4K 2A (Homo sapiens, UniProt P48426); submitted item: CC1Oc2cc(C(=O)N(C)C)ccc2-c2cnc(Nc3cnc4c(c3)N(S(C)(=O)=O)CCO4)cc21 (centres unmarked)
Resp: ≤ 1 nM

Req: Repeat with CC1Oc2cc(N3CCCC3=O)ccc2-c2cnc(Nc3cnc4c(c3)N3C(=O)OC[C@H]3CO4)cc21 (some centres unmarked)
Resp: ≤ 1 nM

Req: Repeat with CC1Oc2cc(N3CCCC3=O)ccc2-c2cnc(Nc3cncc(NC(=O)c4cccnc4)c3)cc21 (centres unmarked)
Resp: 1 to 10 nM

Req: Repeat with CC(=O)Nc1cc(Nc2cc3c(cn2)-c2ccc(N4CCCC4=O)cc2OC3C)cnn1 (centres unmarked)
Resp: 1 to 10 nM

Req: Repeat with O=C1CCCN1c1ccc(-c2ccc(Nc3cnc4c(c3)N3C(=O)C5(CC5)C[C@H]3CO4)nc2)cc1F
Resp: 1 to 10 nM

Req: Repeat with CC1Oc2cc(C(=O)N(C)C)ccc2-c2cnc(Nc3cncc(N4CCCC4=O)c3)cc21 (centres unmarked)
Resp: 1 to 10 nM

Req: Repeat with CC1Oc2cc(N3CCCC3=O)ccc2-c2cnc(Nc3cncc(NC(=O)C4CCNC4=O)c3)cc21 (centres unmarked)
Resp: 1 to 10 nM

Req: Repeat with CC1(C)Oc2cc(N3CCCC3=O)c(F)cc2-c2cnc(Nc3cncc(N4CCNC4=O)c3)cc21
Resp: 1 to 10 nM

Req: Repeat with CC1Oc2cc(N3CCCC3=O)ccc2-c2cnc(Nc3cncc(NC(=O)c4ccn5ccnc5c4)c3)cc21 (centres unmarked)
Resp: 1 to 10 nM

Req: Repeat with CC1Oc2cc(N3CCCC3=O)ccc2-c2cnc(Nc3cnc4cccnc4c3)cc21 (centres unmarked)
Resp: 10 to 100 nM

Req: Repeat with CC1Oc2cc(N3CCCC3=O)ccc2-c2cnc(Nc3cncc(Nc4ccccn4)c3)cc21 (centres unmarked)
Resp: 1 to 10 nM

Req: Repeat with O=C1CCCN1c1ccc2c(c1)OCc1cc(Nc3cncc(N4CCNC4=O)c3)ncc1-2
Resp: 1 to 10 nM

Req: Repeat with CC1Oc2cc(N3CCCC3=O)c(F)cc2-c2cnc(Nc3cnc4c(c3)N3C(=O)[C@](C)(O)C[C@H]3CO4)cc21 (some centres unmarked)
Resp: 1 to 10 nM

Req: Repeat with CC1Oc2cc(N3CCCC3=O)ccc2-c2cnc(Nc3cncc(N4CCOCC4=O)c3)cc21 (centres unmarked)
Resp: 10 to 100 nM

Req: Repeat with CC1Oc2cc(N3CCCC3=O)ccc2-c2cnc(Nc3cccnc3)cc21 (centres unmarked)
Resp: 1 to 10 nM

Req: Repeat with CC1Oc2cc(N3CCCC3=O)ccc2-c2cnc(Nc3cncc(OC(F)F)c3)cc21 (centres unmarked)
Resp: 10 to 100 nM

Req: Repeat with CC1Oc2cc(N3CCCC3=O)ccc2-c2cnc(Nc3cncc(NC(=O)C4CCCO4)c3)cc21 (centres unmarked)
Resp: 1 to 10 nM

Req: Repeat with CC1Oc2cc(N3CCCC3=O)ccc2-c2cnc(Nc3cncc(C(F)(F)F)c3)cc21 (centres unmarked)
Resp: 100 to 1000 nM

Req: Repeat with O=C1CCCN1c1ccc2c(c1)OCc1cc(Nc3cnc4c(c3)N(S(=O)(=O)C3CC3)CCO4)ncc1-2
Resp: 1 to 10 nM

Req: Repeat with CC1(C)Oc2cc(N3CCCC3=O)ccc2-c2cnc(Nc3cnc4c(c3)N3C(=O)CC[C@H]3CO4)cc21
Resp: ≤ 1 nM

Req: Repeat with CN(C)C/C=C/C(=O)Nc1ccc(C(=O)Nc2cncc(Nc3cc4c(cn3)-c3ccc(N5CCCC5=O)cc3OC4)c2)cc1
Resp: 1 to 10 nM
